B1: PLK2 (parent)
chain: MELLRTITYQPAASTKMCEQALGK

Variants of: B1
Procedure text: protein stability index of a GFP-peptide fusion (GPS, HEK-293T) (PSI 1-6); higher = more stable;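 note: lentivirally expressed fusions sorted by FACS into six bins by GFP to DsRed ratio, PSI derived from sequencing read proportions per bin multiplied by bin number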
Condition context: c terminus: a fixed tail appended
Catalogue of protein stability index values
Provide a numeric answer; units are not to be included.

>>> print(df.to_string())
           residue_sequence   val
0  MELLRTITYQPAASTKMCEQALGR  1.98

Now for another entry.
Prompt: Supply protein stability index value. Item: "MELLRTITDQPAASTKMCEQALGK"
Completion: 2

Every entry's value here was drawn from the supplement of paper PMC10567573.
